Conditions: in n-propanol, 283.15 K
Reported property: solubility (mole fraction)

{"Chem smiles": "c1ccc2[nH]c(-c3cscn3)nc2c1", "Readout number": 0.00136}

====

Conditions: in water, 303.15 K

{"Chem smiles": "c1ccc2[nH]c(-c3cscn3)nc2c1", "solubility (mole fraction)": "5.25e-07"}

====

Conditions: in n-propanol, 303.15 K

{"Chem smiles": "c1ccc2[nH]c(-c3cscn3)nc2c1", "solubility (mole fraction)": 0.00225}

====

Settings: in n-propanol, 288.15 K

{"Chem smiles": "c1ccc2[nH]c(-c3cscn3)nc2c1", "solubility (mole fraction)": 0.00156}
